Every entry's value here was drawn from patent US6514997B2.

tested on: strains of human rhinovirus (HRV); assay: Antirhinoviral H1-HeLa cell culture assay (XTT cell protection, EC50), other HRV strains; assay type: cell-based, human rhinovirus in H1-HeLa cells; conditions: Human rhinovirus sp., HRV9, H1-HeLa, HRV-9; read-out: EC50
METRIC NAME: EC50 (nM)
Answers are plain numbers, in nM.

Reference set, count: 8
COMPOUND: C#CC[C@@H](C(=O)N[C@H](/C=C/C(=O)OCC)C[C@@H]1CCNC1=O)n1cccc(NC(=O)c2cc(C)on2)c1=O [Compound 31]
EC50 [nM]: 44
--
COMPOUND: CC[C@@H](C(=O)N[C@H](/C=C/C(=O)OCc1ccccc1)C[C@@H]1CCNC1=O)n1cccc(NC(=O)c2cc(C)on2)c1=O [Compound 62]
EC50 [nM]: 130
--
COMPOUND: CC[C@@H](C(=O)N[C@H](/C=C/C(=O)OC(C)C)C[C@@H]1CCNC1=O)n1cccc(NC(=O)c2cc(C)on2)c1=O [Compound 52]
EC50 [nM]: 473
--
COMPOUND: CC[C@@H](C(=O)N[C@H](/C=C/C(=O)OC1CCC1)C[C@@H]1CCNC1=O)n1cccc(NC(=O)c2cc(C)on2)c1=O [Compound 59]
EC50 [nM]: 70
--
COMPOUND: C#CC[C@@H](C(=O)N[C@H](/C=C/C(=O)OC1CCCCC1)C[C@@H]1CCNC1=O)n1cccc(NC(=O)c2cc(C)on2)c1=O [Compound 55]
EC50 [nM]: 531
--
COMPOUND: Cc1cc(C(=O)Nc2cccn([C@@H](Cc3ccc(F)c(F)c3)C(=O)N[C@H](/C=C/C(=O)OC3CCCCC3)C[C@@H]3CCNC3=O)c2=O)no1 [Compound 54]
EC50 [nM]: 517
--
COMPOUND: Cc1cc(C(=O)Nc2cccn([C@@H](Cc3ccc(F)c(F)c3)C(=O)N[C@H](/C=C/C(=O)OC3CCCC3)C[C@@H]3CCNC3=O)c2=O)no1 [Compound 49]
EC50 [nM]: 95
--
COMPOUND: C#CC[C@@H](C(=O)N[C@H](/C=C/C(=O)OCc1ccccc1)C[C@@H]1CCNC1=O)n1cccc(NC(=O)c2cc(C)on2)c1=O [Compound 63]
EC50 [nM]: 65

Provide EC50 for all items below, preserving their order.
1. CCOC(=O)/C=C/[C@H](C[C@@H]1CCNC1=O)NC(=O)[C@H](Cc1ccc(F)cc1)n1cccc(NC(=O)c2cc(C)on2)c1=O [Compound 25]
2. CCOC(=O)/C=C/[C@H](C[C@@H]1CCNC1=O)NC(=O)[C@@H]1CCc2c(Cl)cc(NC(=O)c3cc(C)on3)c(=O)n21 [Compound 39]
3. CCOC(=O)/C=C/[C@H](C[C@@H]1CCNC1=O)NC(=O)[C@H](CC)n1cccc(NC(=O)c2cc(C)on2)c1=O [Compound 26]

10
48
45
